Listing: % Activity of selected molecules
tested on: reductase RRG; experiment: Substrate specificity of RRG: reducing activity against various carbonyl compounds; type: biochemical, Rhodotorula glutinis var. dairenensis IFO 0415; details: relative to reducing activity with 2-chloro-1-(3′-chlorophenyl)ethanone taken as 100%; substrate 1 mM, NADPH 0.25 mM, pH 6.5, 30° C.
Please respond with the number in % and leave the unit unwritten.

Exam item: Report measured % Activity on reductase RRG; entry: CCOC(=O)C(C)C(C)=O (centres unmarked) [ethyl 2-methylacetoacetate]
Marked response: 12

Continue with the molecule presented below.
Exam item: Name the value of % Activity reported for CCOC(=O)CC(=O)c1ccccc1 [ethyl benzoylylacetate] when tested on reductase RRG.
Marked response: 15

Origin of measurements: patent US7332312B2
